src = the supplement of paper PMC9254222

test system: HEK293T (UBE3A T485A transfected, BAR Wnt reporter); assay: Wnt reporter firefly/Renilla luciferase ratio relative to plate median (fold (linear ratio)); higher = more Wnt/beta-catenin reporter activation; conditions: concentration: 100 uM; 24 h
The full ranking holds about 1,100 compounds; the median of “Wnt reporter firefly/Renilla luciferase ratio relative to plate median” is about 1.1, and the highest 2% start at about 1.6. The sample holds the highest values, similar compounds and a random draw of the others, so the mix is not that of the screen.
observation type: Wnt reporter firefly/Renilla luciferase ratio

>>> print(df.to_string())
                                   compound                     target_or_test_system  result
0                CCN(CC)C(=O)SCc1ccc(Cl)cc1  HEK293T (UBE3A T485A transfected, BAR Wnt reporter)    1.54
1             C[n+]1ccc(-c2cc[n+](C)cc2)cc1  HEK293T (UBE3A T485A transfected, BAR Wnt reporter)    1.77
2                    CNC(=O)Oc1cccc2ccccc12  HEK293T (UBE3A T485A transfected, BAR Wnt reporter)   0.629
3  Nc1cc2c3c(c1)C(c1ccccc1)=N[C@@H](NC(=O)c1cccnc1)C(=O)N3CC2  HEK293T (UBE3A T485A transfected, BAR Wnt reporter)   0.802
4  CN1C2CC(OC(=O)C(CO)c3ccccc3)CC1C1OC12 (centres undefined)  HEK293T (UBE3A T485A transfected, BAR Wnt reporter)    1.26
5  CCOP(=S)(Oc1ccc([N+](=O)[O-])cc1)c1ccccc1 (centres undefined)  HEK293T (UBE3A T485A transfected, BAR Wnt reporter)   0.846
6  Cc1c(COC(=O)[C@H]2[C@@H](/C=C(\Cl)C(F)(F)F)C2(C)C)cccc1-c1ccccc1  HEK293T (UBE3A T485A transfected, BAR Wnt reporter)   0.325
7                      CCNc1nc(Cl)nc(NCC)n1  HEK293T (UBE3A T485A transfected, BAR Wnt reporter)    1.52
8  COc1cnc(OC)n2nc(NS(=O)(=O)c3c(OCC(F)F)cccc3C(F)(F)F)nc12  HEK293T (UBE3A T485A transfected, BAR Wnt reporter)    1.75
